Target desc: Cytochrome P450 2D6 (Homo sapiens, UniProt P10635)
Sequence (P10635 whole entry): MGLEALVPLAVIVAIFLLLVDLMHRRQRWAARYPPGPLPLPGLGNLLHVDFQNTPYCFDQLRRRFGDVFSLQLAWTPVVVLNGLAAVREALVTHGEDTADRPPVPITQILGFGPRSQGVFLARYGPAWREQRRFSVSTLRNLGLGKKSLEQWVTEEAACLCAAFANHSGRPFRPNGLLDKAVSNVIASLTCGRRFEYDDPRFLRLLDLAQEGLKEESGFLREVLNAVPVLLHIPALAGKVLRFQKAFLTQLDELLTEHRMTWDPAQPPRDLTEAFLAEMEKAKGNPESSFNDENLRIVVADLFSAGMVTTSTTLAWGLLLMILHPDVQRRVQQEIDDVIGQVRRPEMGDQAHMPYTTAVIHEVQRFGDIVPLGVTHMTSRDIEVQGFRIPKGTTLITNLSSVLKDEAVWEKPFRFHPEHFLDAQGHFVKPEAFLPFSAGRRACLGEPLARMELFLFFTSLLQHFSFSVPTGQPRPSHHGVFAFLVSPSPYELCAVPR
Measurement notes: Inhibition of CYP2D6
Type: ADME
Result type: IC50

Provide the documented IC50 with Cytochrome P450 2D6 (Homo sapiens, UniProt P10635) as the system for O=c1cc(OCc2ccccc2)ccn1-c1ccc2c(cnn2CCN2CC[C@H](O)C2)c1
> 10 µM

* * *

Measurement notes: Drug level in mouse brain at 10 mg/kg after 6 hrs
Format: ADME, organism-based
Parameters: dose 10 mg/kg
Measurement setup: read-out: Drug uptake
Result type: concentration at 6 h (ng/g)
Numbers only, in ng/g.

Name the recorded concentration at 6 h for O=c1c2cc(-c3ccc(Cl)cc3)oc2ccn1-c1ccc2c(cnn2CCN2CCCC2)c1 .
2250

* * *

Measurement notes: Ratio of drug level in brain to plasma in mouse at 10 mg/kg after 6 hrs
Type: ADME, organism-based
Design: dose 10 mg/kg
Measurement setup: read-out: BPR
Result type: Kp at 6 h
One number for each entry.

Name the recorded Kp at 6 h for O=c1c2cc(-c3ccc(Cl)cc3)oc2ccn1-c1ccc2c(cnn2CCN2CCCC2)c1 .
16

* * *

Would you mind telling me the reported pIC50 of each entry?
Target desc: Voltage-gated inwardly rectifying potassium channel KCNH2 (Homo sapiens, UniProt Q12809)
Sequence (Q12809 whole entry): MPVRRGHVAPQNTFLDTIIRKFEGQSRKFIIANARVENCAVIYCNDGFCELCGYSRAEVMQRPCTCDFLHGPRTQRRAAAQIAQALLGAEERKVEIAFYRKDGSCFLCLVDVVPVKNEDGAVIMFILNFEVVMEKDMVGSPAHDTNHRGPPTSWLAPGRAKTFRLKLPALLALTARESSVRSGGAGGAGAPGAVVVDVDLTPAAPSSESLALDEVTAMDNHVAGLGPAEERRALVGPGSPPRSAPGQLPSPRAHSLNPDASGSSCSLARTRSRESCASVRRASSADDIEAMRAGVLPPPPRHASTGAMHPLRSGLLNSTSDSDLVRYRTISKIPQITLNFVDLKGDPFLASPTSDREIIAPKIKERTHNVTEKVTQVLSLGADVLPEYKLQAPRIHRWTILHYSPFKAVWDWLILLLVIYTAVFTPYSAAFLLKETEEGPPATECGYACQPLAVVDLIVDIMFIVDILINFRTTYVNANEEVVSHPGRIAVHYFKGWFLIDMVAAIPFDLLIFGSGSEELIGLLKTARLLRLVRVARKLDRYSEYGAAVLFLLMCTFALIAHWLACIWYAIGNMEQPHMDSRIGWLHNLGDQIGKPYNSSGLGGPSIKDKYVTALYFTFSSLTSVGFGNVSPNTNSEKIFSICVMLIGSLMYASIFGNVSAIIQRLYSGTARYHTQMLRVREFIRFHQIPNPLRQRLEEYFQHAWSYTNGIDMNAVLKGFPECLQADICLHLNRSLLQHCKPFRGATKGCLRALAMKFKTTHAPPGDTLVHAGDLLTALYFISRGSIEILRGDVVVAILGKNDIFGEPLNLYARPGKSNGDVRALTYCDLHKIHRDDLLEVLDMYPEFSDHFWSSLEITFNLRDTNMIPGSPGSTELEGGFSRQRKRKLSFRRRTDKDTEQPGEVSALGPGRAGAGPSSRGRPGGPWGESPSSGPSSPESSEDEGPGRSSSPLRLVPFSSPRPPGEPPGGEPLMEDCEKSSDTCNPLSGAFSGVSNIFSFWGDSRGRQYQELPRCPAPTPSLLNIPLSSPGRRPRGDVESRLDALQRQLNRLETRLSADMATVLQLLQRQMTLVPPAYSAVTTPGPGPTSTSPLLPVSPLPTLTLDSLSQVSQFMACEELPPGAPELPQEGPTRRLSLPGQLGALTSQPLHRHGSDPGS
Measurement notes: Inhibition of human ERG expressed in HEK cells by mini-patch clamp assay
Give bare numbers, as −log10 of the molar value.

Consider the reported pIC50 for these compounds:
- Compound: "O=c1cc(OCc2ccccc2)ccn1-c1ccc2c(cnn2CCN2CCC[C@@H]2CO)c1"
  Target desc: "Voltage-gated inwardly rectifying potassium channel KCNH2 (Homo sapiens, UniProt Q12809)"
  pIC50: 5.64
- Compound: "CN(C)CCn1ncc2cc(-n3ccc(OCc4ccccc4)cc3=O)ccc21"
  Target desc: "Voltage-gated inwardly rectifying potassium channel KCNH2 (Homo sapiens, UniProt Q12809)"
  pIC50: 5.74
- Compound: "O=c1cc(OCc2ccccc2)ccn1-c1ccc2c(cnn2CCN2CC[C@H](O)C2)c1"
  Target desc: "Voltage-gated inwardly rectifying potassium channel KCNH2 (Homo sapiens, UniProt Q12809)"
  pIC50: 5.05
- Compound: "O=c1cc(OCc2ccccc2)ccn1-c1ccc2c(cnn2C[C@@H]2CCCN2)c1"
  Target desc: "Voltage-gated inwardly rectifying potassium channel KCNH2 (Homo sapiens, UniProt Q12809)"
  pIC50: 5.70
- Compound: "COC[C@H]1CCCN1CCn1ncc2cc(-n3ccc(OCc4ccccc4)cc3=O)ccc21"
  Target desc: "Voltage-gated inwardly rectifying potassium channel KCNH2 (Homo sapiens, UniProt Q12809)"
  pIC50: 6.10

Record pIC50 per entry; entries follow.
1. O=c1cc(OCc2ccccc2)ccn1-c1ccc2c(cnn2CC2=NCCN2)c1
2. CN(C)CC(O)Cn1ncc2cc(-n3ccc(OCc4ccccc4)cc3=O)ccc21 (stereo unspecified)

1. 5.07
2. 4.92

Record pIC50 per entry; entries follow.
1. CN(C)CCCn1ncc2cc(-n3ccc(OCc4ccccc4)cc3=O)ccc21
2. O=c1cc(OCc2ccccc2)ccn1-c1ccc2c(cnn2CCN2CC3CC2CO3)c1 (stereo unspecified)

[5.85, 4.80]

* * *

Measurement notes: Half life in mouse liver microsomes
Format: ADME, Microsome
Result type: half-life
Give the value; after it, write the unit.

- Structure notation: "O=c1cc(OCc2ccccc2)ccn1-c1ccc2c(cnn2CC2=NCCN2)c1"
  Result type: "half-life"
  Result: "9.67 h"
- Structure notation: "O=c1cc(OCc2ccccc2)ccn1-c1ccc2c(cnn2CCN2CC[C@H](O)C2)c1"
  Result type: "half-life"
  Result: "7.22 h"

Okay, now this compound:
Name the recorded half-life for O=c1cc(OCc2ccccc2)ccn1-c1ccc2c(cnn2CCN2CCCC2)c1 .
11.6 h

* * *

Measurement notes: Plasma concentration in mouse at 10 mg/kg after 6 hrs
Type: ADME, organism-based
Set-up: dose 10 mg/kg
Result type: concentration at 6 h (ng/mL)
Give bare numbers, in ng/mL.

Name the recorded concentration at 6 h for O=c1c2cc(-c3ccc(Cl)cc3)oc2ccn1-c1ccc2c(cnn2CCN2CCCC2)c1 .
141

* * *

Measurement notes: Plasma concentration in mouse at 30 mg/kg after 6 hrs
Format: ADME, organism-based
Design: dose 30 mg/kg
Result type: concentration at 6 h (ng/mL)
One number for each entry, in ng/mL.

Name the recorded concentration at 6 h for O=c1cc(OCc2ccccc2)ccn1-c1ccc2c(cnn2CCN2CCCC2)c1 .
2220

* * *

Target desc: Melanin-concentrating hormone receptor 1 (Homo sapiens)
Sequence (Q99705 whole entry): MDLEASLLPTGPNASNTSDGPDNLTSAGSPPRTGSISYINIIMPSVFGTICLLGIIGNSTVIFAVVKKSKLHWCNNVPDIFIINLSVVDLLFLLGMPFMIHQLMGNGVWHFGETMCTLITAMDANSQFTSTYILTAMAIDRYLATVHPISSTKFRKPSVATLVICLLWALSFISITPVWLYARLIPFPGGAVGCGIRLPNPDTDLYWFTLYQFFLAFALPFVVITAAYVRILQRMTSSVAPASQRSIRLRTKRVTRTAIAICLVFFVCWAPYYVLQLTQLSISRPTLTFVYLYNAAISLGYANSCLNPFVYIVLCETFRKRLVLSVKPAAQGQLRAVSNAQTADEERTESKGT
Measurement notes: Antagonistic activity at MCH-1 receptor expressed in CHO-K1 cell assessed as inhibition of MCH-induced calcium release
Result type: pIC50
Answers are plain numbers, as −log10 of the molar value.

- Structure notation: "O=c1cc(OCc2ccccc2)ccn1-c1ccc2c(cnn2CCN2CCCC2)c1"
  pIC50: 7.85

Name the recorded pIC50 for O=c1c2cc(-c3ccc(Cl)cc3)oc2ccn1-c1ccc2c(cnn2CCN2CCCC2)c1 .
7.64
